- testedTarget: HCMV polymerase (Human cytomegalovirus)
- Construct: made in house; host or cells: SF-9 insect cells infected with recombinant baculovirus
- Sequence (P08546 whole entry): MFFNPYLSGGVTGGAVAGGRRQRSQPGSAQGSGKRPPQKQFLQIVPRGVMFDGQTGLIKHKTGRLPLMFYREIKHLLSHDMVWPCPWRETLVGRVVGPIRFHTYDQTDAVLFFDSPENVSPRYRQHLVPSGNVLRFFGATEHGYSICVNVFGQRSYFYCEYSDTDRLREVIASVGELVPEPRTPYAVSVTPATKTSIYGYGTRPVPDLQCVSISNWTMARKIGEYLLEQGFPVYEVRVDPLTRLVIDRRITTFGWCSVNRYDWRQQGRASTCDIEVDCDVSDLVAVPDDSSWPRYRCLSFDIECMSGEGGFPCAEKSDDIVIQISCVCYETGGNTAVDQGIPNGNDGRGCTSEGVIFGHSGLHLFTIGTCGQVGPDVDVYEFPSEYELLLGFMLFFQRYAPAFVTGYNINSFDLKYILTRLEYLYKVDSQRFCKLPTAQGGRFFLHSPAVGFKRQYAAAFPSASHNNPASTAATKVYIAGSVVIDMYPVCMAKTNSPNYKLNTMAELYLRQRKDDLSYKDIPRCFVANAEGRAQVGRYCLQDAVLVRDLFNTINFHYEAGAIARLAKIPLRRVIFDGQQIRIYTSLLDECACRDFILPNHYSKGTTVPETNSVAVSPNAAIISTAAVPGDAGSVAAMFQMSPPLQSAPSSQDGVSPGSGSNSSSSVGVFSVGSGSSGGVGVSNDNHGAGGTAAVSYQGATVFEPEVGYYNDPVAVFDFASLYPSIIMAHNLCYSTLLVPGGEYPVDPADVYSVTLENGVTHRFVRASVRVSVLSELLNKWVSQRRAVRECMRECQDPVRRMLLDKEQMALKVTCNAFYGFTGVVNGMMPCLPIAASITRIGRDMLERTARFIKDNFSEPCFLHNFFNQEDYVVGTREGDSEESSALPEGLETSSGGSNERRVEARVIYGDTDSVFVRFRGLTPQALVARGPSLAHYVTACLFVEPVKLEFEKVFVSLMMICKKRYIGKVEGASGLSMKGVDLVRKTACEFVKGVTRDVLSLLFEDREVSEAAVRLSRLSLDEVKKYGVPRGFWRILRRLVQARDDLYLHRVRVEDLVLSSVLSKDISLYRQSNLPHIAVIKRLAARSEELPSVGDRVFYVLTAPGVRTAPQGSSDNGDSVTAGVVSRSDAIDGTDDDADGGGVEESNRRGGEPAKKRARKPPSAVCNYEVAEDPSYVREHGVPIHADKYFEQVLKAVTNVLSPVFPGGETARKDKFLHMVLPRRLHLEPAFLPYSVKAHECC
- test: HCMV polymerase assay (scintillation proximity assay)
- Type: biochemical
- recordedConditions: percentage of inhibition at 25 μM concentration in CMV polymerase assay
measuredEndpoint: inhibition at 25 µM (%)
# number only, unit % dropped from output

>  <lineNotation>
O=C(Nc1nnc(NCCCN2CCCC2=O)s1)c1ccc(Cl)c(Cl)c1

>  <inhibition at 25 µM, %>
47.1

$$$$
>  <lineNotation>
O=C(Nc1nnc(NCCSc2ccccc2)s1)c1ccc2c(c1)C(=O)OC2=O

>  <inhibition at 25 µM, %>
90.1

$$$$
>  <lineNotation>
O=C(Nc1nnc(NCCCn2ccnc2)s1)c1c(Cl)cccc1Cl

>  <inhibition at 25 µM, %>
65.6

$$$$
>  <lineNotation>
O=C(Nc1nnc(NCCSc2ccccc2)s1)c1ccc(Br)cc1

>  <inhibition at 25 µM, %>
51.5

$$$$
>  <lineNotation>
O=C(Nc1nnc(NCc2ccc(F)cc2)s1)c1cc2ccccc2s1

>  <inhibition at 25 µM, %>
28.8

$$$$

Problem: For the compound O=C(CCCCCl)Nc1nnc(NC2CCCCCC2)s1 , give its measured inhibition at 25 µM value.
Result: 33.6

Problem: For the compound O=C(Nc1nnc(NCc2ccncc2)s1)c1c(Cl)cccc1Cl , give its measured inhibition at 25 µM value.
Result: 67.6

Problem: For the compound O=C(/C=C/c1ccccc1)Nc1nnc(NCc2ccc(F)cc2)s1 , give its measured inhibition at 25 µM value.
Result: 32.7

Problem: For the compound CC(C)c1cc(C(C)C)c(C(=O)Nc2nnc(NCCCN3CCCC3=O)s2)c(C(C)C)c1 , give its measured inhibition at 25 µM value.
Result: 27.4

Problem: For the compound COc1ccccc1C(=O)Nc1nnc(NCc2ccc(F)cc2)s1 , give its measured inhibition at 25 µM value.
Result: 30.4

Problem: For the compound CCCCCCCCCCCNc1nnc(NC(=O)c2cc3ccccc3s2)s1 , give its measured inhibition at 25 µM value.
Result: 39.8

Problem: For the compound CCOc1ccc2ccccc2c1C(=O)Nc1nnc(NCc2cccnc2)s1 , give its measured inhibition at 25 µM value.
Result: 71.9

Problem: For the compound N#Cc1ccc(C(=O)Nc2nnc(NCc3ccc(F)cc3)s2)cc1 , give its measured inhibition at 25 µM value.
Result: 69

Problem: For the compound N#Cc1ccc(C(=O)Nc2nnc(NCc3cccc4ccccc34)s2)cc1 , give its measured inhibition at 25 µM value.
Result: 53.3
